B1: mRNA-splicing (parent)
chain: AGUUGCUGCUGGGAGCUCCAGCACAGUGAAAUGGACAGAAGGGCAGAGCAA

Variants of: B1
PROTOCOL: exon inclusion enrichment index; higher = more inclusion; WT1 exon 5 minigene, HEK293
Classify by measured exon inclusion enrichment index: met if it is equal to or exceeds 2, not met if it is smaller.

[
  {
    "MUTATION_KEY": "G5C C6G U7C U10C A25C",
    "GROUP": "met"
  },
  {
    "MUTATION_KEY": "C6A U7C C9A U10C G34U",
    "GROUP": "not met"
  },
  {
    "MUTATION_KEY": "G5A C6U U7A G8U C9A A47C G48U",
    "GROUP": "not met"
  },
  {
    "MUTATION_KEY": "G5A C6U U7A G8U C9A G46A A47C",
    "GROUP": "not met"
  },
  {
    "MUTATION_KEY": "G5C C6U G8C C9U U10C G41C G42U",
    "GROUP": "met"
  },
  {
    "MUTATION_KEY": "G5C C6U G8C C9U U10C C36G A37G",
    "GROUP": "not met"
  },
  {
    "MUTATION_KEY": "G5C C6U G8C C9U U10C U27C G28C",
    "GROUP": "met"
  },
  {
    "MUTATION_KEY": "C6A U7C C9A U10G",
    "GROUP": "not met"
  },
  {
    "MUTATION_KEY": "G5C C6A U7C G8A U10A C22A",
    "GROUP": "not met"
  },
  {
    "MUTATION_KEY": "G5C C6G U7C U10C C22G A23U",
    "GROUP": "not met"
  },
  {
    "MUTATION_KEY": "G5C C6G U7C U10C G34A A35C",
    "GROUP": "met"
  },
  {
    "MUTATION_KEY": "G5A C6U U7A G8U C9A A23C C24U",
    "GROUP": "not met"
  },
  {
    "MUTATION_KEY": "G5U G8U C9U A25C G26A",
    "GROUP": "not met"
  },
  {
    "MUTATION_KEY": "G5A U7C G8A U10C C18G C19G",
    "GROUP": "met"
  },
  {
    "MUTATION_KEY": "G5A U7C G8A U10C C44A A45U",
    "GROUP": "met"
  },
  {
    "MUTATION_KEY": "G5C C6A U7C G8A U10A C22G A23U",
    "GROUP": "not met"
  },
  {
    "MUTATION_KEY": "G2U U3A G5C C6U G8C C9U U10C",
    "GROUP": "met"
  },
  {
    "MUTATION_KEY": "C24A",
    "GROUP": "not met"
  },
  {
    "MUTATION_KEY": "G5A C6U U7A G8U C9A G46A A47U",
    "GROUP": "not met"
  },
  {
    "MUTATION_KEY": "G5A C6U U7A G8U C9U U10G",
    "GROUP": "not met"
  },
  {
    "MUTATION_KEY": "C6A U7A C9A U10A A31U U32G",
    "GROUP": "not met"
  },
  {
    "MUTATION_KEY": "G5A U7C G8A U10C U27C G28U",
    "GROUP": "not met"
  },
  {
    "MUTATION_KEY": "G5C C6G U7C U10C A14C G15A",
    "GROUP": "not met"
  },
  {
    "MUTATION_KEY": "G5A U7C G8A U10C A23G C24U",
    "GROUP": "not met"
  },
  {
    "MUTATION_KEY": "G5C C6U G8C C9U U10C C24A",
    "GROUP": "not met"
  },
  {
    "MUTATION_KEY": "G5C C6G U7C U10C A39U",
    "GROUP": "not met"
  },
  {
    "MUTATION_KEY": "U4G G8U C9U",
    "GROUP": "not met"
  },
  {
    "MUTATION_KEY": "C6A U7A C9A U10A A35G",
    "GROUP": "not met"
  },
  {
    "MUTATION_KEY": "G5A U7C G8A U10C G15U C16U",
    "GROUP": "not met"
  },
  {
    "MUTATION_KEY": "C6A U7C C9A U10C A47G G48A",
    "GROUP": "met"
  },
  {
    "MUTATION_KEY": "G5U G8U C9U C24A A25G",
    "GROUP": "not met"
  },
  {
    "MUTATION_KEY": "C6A U7C C9A U10C C36U A37C",
    "GROUP": "met"
  },
  {
    "MUTATION_KEY": "C6A U7C C9A U10C A29U A30G",
    "GROUP": "met"
  },
  {
    "MUTATION_KEY": "C6A U7C C9A U10C G13A A14C",
    "GROUP": "met"
  },
  {
    "MUTATION_KEY": "C19A A20G",
    "GROUP": "not met"
  },
  {
    "MUTATION_KEY": "C6A U7C C9A U10C A45G G46A",
    "GROUP": "met"
  },
  {
    "MUTATION_KEY": "U3C U4A G5A C6G U7G C9A",
    "GROUP": "not met"
  },
  {
    "MUTATION_KEY": "C6A U7C C9A U10C G12A G13C",
    "GROUP": "met"
  },
  {
    "MUTATION_KEY": "G5C C6U G8C C9U U10C G11A G12C",
    "GROUP": "not met"
  },
  {
    "MUTATION_KEY": "G5C C6A U7C G8A U10A C18U C19G",
    "GROUP": "not met"
  },
  {
    "MUTATION_KEY": "G5A C6G U7G C9A C18U C19G",
    "GROUP": "not met"
  },
  {
    "MUTATION_KEY": "G5U G8U C9U A39C A40C",
    "GROUP": "not met"
  },
  {
    "MUTATION_KEY": "G5A C6U U7A G8U C9A G33A G34U",
    "GROUP": "not met"
  },
  {
    "MUTATION_KEY": "G5A C6U U7A G8U C9A A45C G46A",
    "GROUP": "not met"
  },
  {
    "MUTATION_KEY": "C6A U7A C9A U10A A35U C36U",
    "GROUP": "not met"
  },
  {
    "MUTATION_KEY": "G5A C6U U7A G8U C9A G42C",
    "GROUP": "not met"
  },
  {
    "MUTATION_KEY": "G5C C6G U7C U10C A37C G38A",
    "GROUP": "met"
  },
  {
    "MUTATION_KEY": "G15A C16U",
    "GROUP": "not met"
  },
  {
    "MUTATION_KEY": "G5A U7C G8A U10C G43C C44A",
    "GROUP": "met"
  },
  {
    "MUTATION_KEY": "G5C C6U U7A G8A U10A",
    "GROUP": "not met"
  },
  {
    "MUTATION_KEY": "G5A U7C G8A U10C A40C G41A",
    "GROUP": "not met"
  },
  {
    "MUTATION_KEY": "G5A C6G U7G C9A G11A G12U",
    "GROUP": "not met"
  },
  {
    "MUTATION_KEY": "C6A U7C C9A U10C C16A",
    "GROUP": "met"
  }
]
